System: A549 NSCLC
assay comment: NCI tumour cell line growth inhibition, 48 h

| compound | TGI |
| --- | --- |
| O[C@@H]1CCCN1Cc1cc2cc3c(cc2c2cc(OCc4ccccc4)ccc12)OCO3 | 14.8 µM |
| CO/N=C(\COc1ccc2c(c1)oc(=O)c1cc(OC)ccc12)c1ccc(F)cc1 | 94.8 µM |
| O=C1OC2c3ccccc3C(=O)C2(c2ccccc2)N1c1ccccc1 (centres undefined) | > 200 µM |
| COc1ccccc1-c1nc2ccccc2c(=O)[nH]1 | > 100 µM |
| N#CCCN(CCC#N)c1ccc(/C=N\c2nc(-c3ccccc3)cs2)cc1 | > 100 µM |
| NC1=NN(c2ccccc2)C2(c3ccncc3C(=O)O)C1C(N)=NN2c1ccccc1 (centres undefined) | > 100 µM |
| CC1(C)O[C@H]2[C@@H]3N=C(c4ccccc4)O[C@@H]3C=C[C@H]2O1 | > 100 µM |
| O=c1oc2cccnc2n1CCN1CCN(c2ccc(Oc3ccccc3)cc2)CC1 | > 100 µM |
| Cc1nc2c(n1CCC(C)C)C(=O)c1ccccc1C2=O | > 100 µM |
| COc1ccc(Cn2cnc3cc(C(=O)Nc4cccc5ccccc45)ccc32)c(OC)c1 | > 100 µM |
| CC(=O)[O-].CC(=O)[O-].O=C(N/N=C/c1cc(Cl)cc(Cl)c1[OH2+])c1ccncc1.[Zn+2] | > 100 µM |
| C=C(C)[C@@H]1CC[C@]2(C(=O)O)CC[C@]3(C)[C@H](CC[C@@H]4[C@@]5(C)C[C@@H](CC#Cc6ccc(Br)cc6)C(=O)C(C)(C)[C@@H]5CC[C@]43C)[C@@H]12 | > 100 µM |
| Cc1nc(N)c(N2CCN(Cc3ccccc3)CC2)c(=O)[nH]1 | > 100 µM |
| COCOCc1cc(OCc2ccccc2)c(OC)cc1Br | > 100 µM |
| C[N+](C)(C)Cc1c(CC#N)[nH]c2ccccc12 | > 100 µM |
| BrCCC[P+](c1ccccc1)(c1ccccc1)c1ccccc1 | > 63.8 µM |
| CCn1c(-c2ccccc2)nc2c1C(=O)c1ccccc1C2=O | > 100 µM |
| COC(=O)C1=COC2OC3/C(=C\c4ccc(O)c(OC)c4)C(=O)OC34C=CC1C24 (centres undefined) | 32.4 µM |
| COc1cc(C(=O)N2CCN(c3ccccc3OC)CC2)c(N)cc1OCc1ccccc1 | > 100 µM |
| CN(C)CCCNC(=O)c1cc(NC(=O)c2cc(NC(=O)[C@H]3C[C@@H]3C(=O)Nc3cc(C(=O)Nc4cc(C(=O)NCCCN(C)C)n(C)c4)n(C)c3)cn2C)cn1C | > 100 µM |
| Cc1ccc(S(=O)C[C@@]2(C(F)F)NC(=O)NC2=O)cc1 (some centres undefined) | > 100 µM |
| COc1cc2c3c(n(CCCNC(=O)OCC4c5ccccc5-c5ccccc54)c(=O)c2cc1OC)-c1cc2c(cc1C3=O)OCO2 | > 100 µM |
| Cn1c(=O)c2[nH]c(C3CC(=O)CC(c4nc5c([nH]4)c(=O)n(C)c(=O)n5C)N3)nc2n(C)c1=O (centres undefined) | > 100 µM |
| CCOC(=O)NC(NNc1ccc([N+](=O)[O-])cc1[N+](=O)[O-])(C(F)(F)F)C(F)(F)F | > 100 µM |
| CC(=O)O[C@H]1CC[C@H]2[C@@H]3CCC4=C(C(=O)C=CC4(C)OC(C)=O)[C@H]3CC[C@]12C (some centres undefined) | > 100 µM |
| CC(C)CCNC(=O)c1ccc(CNC(=O)/C=C/c2csc(-c3ccccc3)n2)cc1 | > 100 µM |
| N#CCC12CC=CCC1=C(O)C(=O)c1ccc(O)cc12 (centres undefined) | > 100 µM |
| OCCCCn1cc(Cn2ncc3c(SCc4ccccc4)ncnc32)nn1 | > 100 µM |
| CCSc1nc(N2CCCCC2)c2cn[nH]c2n1 | > 100 µM |
| C#C[C@@]1(O)CCCC2=CC(=O)C[C@]21C | > 100 µM |
| O=C1c2ccccc2C(=O)c2c1oc(=O)c1ccccc21 | > 25 µM |
| COP(=O)(OC)C(O)/C=C/c1ccco1 (centres undefined) | > 100 µM |
| COc1ccc(N=Nc2c(C)c(C#N)c(=S)n(C3OC(COC(C)=O)C(OC(C)=O)C(OC(C)=O)C3OC(C)=O)c2-c2ccccc2)cc1 (centres undefined) | 29.7 µM |
| CCOC(=O)N[C@H]1CCc2cc(O)c(OC)c(OC)c2-c2ccc(SC)c(=O)cc21 | > 100 µM |
| CC1C2(C)OC(=N)C(C#N)(C(c3ccco3)O2)C1(C#N)C#N (centres undefined) | > 100 µM |
| c1ccc(SC(Sc2ccccc2)c2ccc3c(c2)OCO3)cc1 | > 100 µM |
| O=c1[nH]c(=O)n(C2OC(CO)C(O)C2O)cc1OCCc1ccccc1 (centres undefined) | > 100 µM |
| CC(=O)N1CC[N+](C)(CCCCN2c3ccccc3Sc3cc(N=[N+]=[N-])ccc32)CC1 | > 100 µM |
| CC1CC(=O)C(CC(=O)O)C1C(C(=O)C(=O)Nc1c(C#N)cccc1[N+](=O)[O-])[N+](=O)[O-] (centres undefined) | > 100 µM |

---

Tested on: DMS 273 small cell lung
assay comment: NCI tumour cell line growth inhibition, 48 h
Measured TGI accompanies every entry in the list below.

| compound | TGI |
| --- | --- |
| N#CCCN(CCC#N)c1ccc(/C=N\c2nc(-c3ccccc3)cs2)cc1 | > 100 µM |
| CCOC(=O)N[C@H]1CCc2cc(O)c(OC)c(OC)c2-c2ccc(SC)c(=O)cc21 | > 100 µM |
| CCN(CC)CCC(=O)N1CCc2c([nH]c3ccccc23)C1c1cccnc1 (configuration not stated) | > 100 µM |
| Cc1cc(NS(=O)(=O)c2ccc(NC(=O)c3cccc4cc5ccccc5nc34)cc2)no1 | 32.4 µM |
| CCC[CH2][Sn]1([CH2]CCC)[O]C(=O)c2cccc(OC)c2[O]1 | 1.96 µM |
| O=C(Nc1ccc([N+](=O)[O-])cc1C(=O)O)c1ccc([N+](=O)[O-])cc1 | > 100 µM |
| O=C1C2C(C(=O)N1c1ccccc1)C1(c3ccccc3)OC2(c2ccccc2)c2ccccc21 (configuration not stated) | > 100 µM |
| C=CCC12CC(=O)C=C1CCC1(C2)OCCO1 (configuration not stated) | > 100 µM |
| CCN(CC)CCC(=O)c1ccccc1 | 33.5 µM |
| O=C(O)C(Cc1cnc[nH]1)N=Cc1nc(-c2ccccc2)oc1O (configuration not stated) | > 100 µM |
| COc1ccc2c[n+](C)c3c4cc(OC)c(OC)cc4ccc3c2c1 | 12.5 µM |
| O=NNc1cnccn1 | > 1250 µM |

---

System: DU-145 prostate
assay comment: NCI tumour cell line growth inhibition, 48 h
Measured TGI accompanies every entry in the list below.

| compound | TGI |
| --- | --- |
| COc1ccc(C(=O)Cn2c(C(C)=O)nc3ccccc32)cc1 | > 100 µM |
| O=c1[nH]c(=O)n(C2OC(CO)C(O)C2O)cc1OCCc1ccccc1 (configuration not stated) | > 100 µM |
| C[C@@H]1OC(=O)C[C@H]2CC(=O)N(CCC3CN(S(=O)(=O)C(F)(F)F)c4ccc(Cc5ccc6c(c5)C(CCN5C[C@H]7[C@@H](CC(=O)O[C@H]7C)CC5=O)CN6S(=O)(=O)C(F)(F)F)cc43)C[C@@H]21 (some centres not stated) | > 100 µM |
| COc1cc2c3c(n(CCCCNC(=O)OCC4c5ccccc5-c5ccccc54)c(=O)c2cc1OC)-c1cc2c(cc1C3=O)OCO2 | > 100 µM |
| CC(=O)O[C@H]1CC[C@H]2[C@@H]3CCC4=C(C(=O)C=CC4(C)OC(C)=O)[C@H]3CC[C@]12C (some centres not stated) | > 100 µM |
| CCOC(=O)/C=C(\C(=O)OCC)n1cnc2c(N)ncnc21 | 29.1 µM |
| COc1ccccc1-c1nc2ccccc2c(=O)[nH]1 | > 100 µM |
| O=C1Nc2ccccc2/C1=C/c1cn(C(=O)c2c(Cl)cccc2Cl)c2ccccc12 | 9.24 µM |
| CC(C)c1ccc2c(c1)C=C1OC(=O)[C@]3(C)CCC[C@@]2(C)C13 (some centres not stated) | > 100 µM |
| COc1cc(OC)c2cc(C(=O)O)c(=O)oc2c1 | > 100 µM |
| CN(C)c1ccc(/C=C/c2ccnc3ccccc23)cc1N | 30.2 µM |
| CC(=O)O[C@H]1[C@@H](OC2CCCC2(c2ccccc2)c2ccccc2)O[N+]([O-])=C[C@@]12COCc1cc3c(cc12)OCO3 (some centres not stated) | > 100 µM |
| CC1C2(C)OC(=N)C(C#N)(C(c3ccco3)O2)C1(C#N)C#N (configuration not stated) | > 100 µM |
| Cc1cc(N(CCC#N)CCC#N)ccc1/C(N=Nc1ccccc1)=N\NC(=O)c1ccccc1 | > 100 µM |
| CN(C)CS/C(N)=N\C(O)C(Cl)(Cl)Cl (configuration not stated) | > 100 µM |
| NC1=NN(c2ccccc2)C2(c3ccncc3C(=O)O)C1C(N)=NN2c1ccccc1 (configuration not stated) | > 100 µM |
| CC(=O)[O-].[Ni].c1ccc(/C(=N\Nc2ccccn2)c2ccccn2)cc1 | 25.1 µM |
